Data origin: BindingDB's records for PubMed 35429911

- target: Programmed cell death 1 ligand/protein 1 (Homo sapiens, UniProt Q9NZQ7+Q15116)
- Sequence (Q9NZQ7 whole entry): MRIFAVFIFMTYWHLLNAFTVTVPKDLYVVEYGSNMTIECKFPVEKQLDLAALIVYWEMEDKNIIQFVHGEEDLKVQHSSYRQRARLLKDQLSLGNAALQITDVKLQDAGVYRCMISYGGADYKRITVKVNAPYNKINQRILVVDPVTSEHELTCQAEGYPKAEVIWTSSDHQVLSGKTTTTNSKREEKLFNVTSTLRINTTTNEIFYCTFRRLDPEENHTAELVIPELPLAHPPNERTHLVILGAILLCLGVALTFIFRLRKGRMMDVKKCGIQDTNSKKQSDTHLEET
- Sequence (Q15116 whole entry): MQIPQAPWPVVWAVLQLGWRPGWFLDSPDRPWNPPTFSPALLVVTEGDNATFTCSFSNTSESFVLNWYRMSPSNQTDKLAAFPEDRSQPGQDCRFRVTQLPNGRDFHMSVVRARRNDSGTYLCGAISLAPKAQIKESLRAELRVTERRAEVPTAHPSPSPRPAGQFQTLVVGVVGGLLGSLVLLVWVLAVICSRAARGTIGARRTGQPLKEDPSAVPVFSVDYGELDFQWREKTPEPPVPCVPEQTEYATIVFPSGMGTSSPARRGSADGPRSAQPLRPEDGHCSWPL
- procedure text: Inhibition of human PD-1/PD-L1 interaction in CHO-K1 cells transfected with PD-1-YFP/SHP-2-CFP and measured by FRET assay
reported property: IC50 (nM)
// units = nM; emit number, no label

INSERT INTO assay_data (mol, experimental_value) VALUES
  ('COc1ccccc1C1=NN(c2ccccn2)C(=O)C1', 7);

The observed IC50 for COc1ccc(C2=NN(c3ccccn3)C(=O)C2)cc1 when tested with Programmed cell death 1 ligand/protein 1 (Homo sapiens, UniProt Q9NZQ7+Q15116) stands at 17
